B1: PhoQ; a variant is named by its letters at X, in order, P23837 (parent)
chain: MKKLLRLFFPLSLRVRFLLATAAVVLVLSLAYGMVALIGYSVSFDKTTFRLLRGESNLFYTLAKWENNKLHVELPENIDKQSPTMTLIYDENGQLLWAQRDVPWLMKMIQPDWLKSNGFHEIEADVNDTSLLLSGDHSIQQQLQEVREDDDDAEMTHSVAVNVYPATSRMPKLTIVVVDTIPVELKSSYMVWSWFIYVLSANLLLVIPLLWVAAWWSLRPIEALAKEVRELEEHNRELLNPATTRELTSLVRNLNRLLKSERERYDKYRTTLTDLTHSLKTPLXXLQXXLRSLRSEKMSVSDAEPVMLEQISRISQQIGYYLHRASMRGGTLLSRELHPVAPLLDNLTSALNKVYQRKGVNISLDISPEISFVGEQNDFVEVMGNVLDNACKYCLEFVEISARQTDEHLYIVVEDDGPGIPLSKREVIFDRGQRVDTLRPGQGVGLAVAREITEQYEGKIVAGESMLGGARMEVIFGRQHSAPKDE

- Variants of: B1
- measurement.description: enrichment ratio after two sorts for PhoP signalling (ratio (wild type AVST 3.29)); higher = more functional
- experimental.parameters: with PhoP (E. coli)
Whole data set: some 140,000 sequences, median “enrichment ratio after two sorts for PhoP signalling” near 0, cut for the highest 2% near 11. The sample holds the highest values, similar sequences and a random draw of the others, so the mix is not that of the screen.
enrichment ratio reference

{"alteration": "TQCW", "comparison.sign": "=", "enrichment ratio": 0.964}
{"alteration": "SEWG", "comparison.sign": "=", "enrichment ratio": 17.3}
{"alteration": "SNSF", "comparison.sign": "=", "enrichment ratio": 10.8}
{"alteration": "SEVS", "comparison.sign": "=", "enrichment ratio": 20.4}
{"alteration": "SVGM", "comparison.sign": "=", "enrichment ratio": 9.35}
{"alteration": "MSGD", "comparison.sign": "≤", "enrichment ratio": 0.25}
{"alteration": "SPWG", "comparison.sign": "≤", "enrichment ratio": 0.25}
{"alteration": "SISF", "comparison.sign": "=", "enrichment ratio": 10.7}
{"alteration": "SNSM", "comparison.sign": "=", "enrichment ratio": 33.4}
{"alteration": "ITSM", "comparison.sign": "=", "enrichment ratio": 2.11}
{"alteration": "SVRM", "comparison.sign": "≤", "enrichment ratio": 0.25}
{"alteration": "SEMD", "comparison.sign": "=", "enrichment ratio": 1.79}
{"alteration": "IPVP", "comparison.sign": "≤", "enrichment ratio": 0.25}
{"alteration": "SISM", "comparison.sign": "=", "enrichment ratio": 16}
{"alteration": "SEMK", "comparison.sign": "=", "enrichment ratio": 7.11}
{"alteration": "FHFV", "comparison.sign": "≤", "enrichment ratio": 0.25}
{"alteration": "QQLY", "comparison.sign": "≤", "enrichment ratio": 0.25}
{"alteration": "STSM", "comparison.sign": "=", "enrichment ratio": 16.4}
{"alteration": "SEMI", "comparison.sign": "=", "enrichment ratio": 17.1}
{"alteration": "KYSM", "comparison.sign": "≤", "enrichment ratio": 0.25}
{"alteration": "QINA", "comparison.sign": "≤", "enrichment ratio": 0.25}
{"alteration": "SEMQ", "comparison.sign": "=", "enrichment ratio": 8.89}
